Header: Ki / 5-hydroxytryptamine receptor 6 (Homo sapiens) / multiple publications
Quick rule for you: Ki under 10 µM gets fulfilled, anything else gets not fulfilled.

# COMPOUND, TARGET OR TEST SYSTEM, CLASSIFICATION
data = [
    ("COc1ccccc1N1CCN(CCNC(=O)c2ccncc2)CC1", "5-hydroxytryptamine receptor 6 (Homo sapiens)", "not fulfilled"),
    ("COc1ccccc1N1CCN(CCCN2C(=O)N/C(=C\\c3cc(OC)c(OC)c(OC)c3)C2=O)CC1", "5-hydroxytryptamine receptor 6 (Homo sapiens)", "not fulfilled"),
    ("CCOc1ccccc1N1CCN(CC(O)CN2C(=O)N/C(=C\\c3cccc(OC)c3)C2=O)CC1 (centres unmarked)", "5-hydroxytryptamine receptor 6 (Homo sapiens)", "not fulfilled"),
    ("Cc1nc2ccccc2n1CCNc1nc(N)nc(NCCc2c[nH]c3ccccc23)n1.Cl", "5-hydroxytryptamine receptor 6 (Homo sapiens)", "fulfilled"),
    ("COc1ccc(/C=C2\\NC(=O)N(CCCN3CCN(c4ccccc4OC)CC3)C2=O)cc1OC", "5-hydroxytryptamine receptor 6 (Homo sapiens)", "not fulfilled"),
    ("CCc1cc(-c2ccoc2)nc(N2CCN(C)CC2)n1", "5-hydroxytryptamine receptor 6 (Homo sapiens)", "fulfilled"),
    ("CCCCc1cc(-c2ccoc2)nc(N2CCN(C)CC2)n1", "5-hydroxytryptamine receptor 6 (Homo sapiens)", "fulfilled"),
    ("Cl.O=S(=O)(NCCCCN1CCN(c2cccc(Cl)c2)CC1)c1cc2ccccc2cn1", "5-hydroxytryptamine receptor 6 (Homo sapiens)", "fulfilled"),
    ("CCOc1ccccc1N1CCN(CCCN2C(=O)N/C(=C\\c3ccc(OC)cc3)C2=O)CC1", "5-hydroxytryptamine receptor 6 (Homo sapiens)", "not fulfilled"),
    ("Cl.Nc1nc(NCCc2ccccc2)nc(NCCc2c[nH]c3ccc(Br)cc23)n1", "5-hydroxytryptamine receptor 6 (Homo sapiens)", "fulfilled"),
    ("CCOc1ccccc1N1CCN(CCCN2C(=O)N/C(=C\\c3cc(OC)c(OC)c(OC)c3)C2=O)CC1", "5-hydroxytryptamine receptor 6 (Homo sapiens)", "not fulfilled"),
    ("COc1cccc(/C=C2\\NC(=O)N(CCCN3CCN(c4ccccc4Cl)CC3)C2=O)c1", "5-hydroxytryptamine receptor 6 (Homo sapiens)", "fulfilled"),
    ("Clc1nnc2ccc(Oc3ccccc3-c3ccccc3)nn12", "5-hydroxytryptamine receptor 6 (Homo sapiens)", "not fulfilled"),
    ("COc1cccc(NCCNc2nc(N)nc(NCCc3c[nH]c4ccccc34)n2)c1.Cl", "5-hydroxytryptamine receptor 6 (Homo sapiens)", "fulfilled"),
    ("Cl.Nc1nc(NCCc2c[nH]c3ccccc23)nc(NCCN2C(=O)c3ccccc3C2=O)n1", "5-hydroxytryptamine receptor 6 (Homo sapiens)", "fulfilled"),
    ("Cl.Nc1nc(NCCc2c[nH]c3ccccc23)nc(NCCn2cnc3ccccc32)n1", "5-hydroxytryptamine receptor 6 (Homo sapiens)", "fulfilled"),
    ("COc1cccc(/C=C2\\NC(=O)N(CC(O)CN3CCN(c4ccccc4OC)CC3)C2=O)c1 (centres unmarked)", "5-hydroxytryptamine receptor 6 (Homo sapiens)", "not fulfilled"),
    ("COc1ccc(/C=C2\\NC(=O)N(CCCN3CCN(c4ccccc4OC)CC3)C2=O)cc1", "5-hydroxytryptamine receptor 6 (Homo sapiens)", "not fulfilled"),
    ("COc1ccc2[nH]cc(CCNc3nc(N)nc(NCCc4ccccc4)n3)c2c1.Cl", "5-hydroxytryptamine receptor 6 (Homo sapiens)", "fulfilled"),
]
